System: R. ferrugineus 4th larvae
method: Topical application (contact insecticide) to fourth instar larvae
Type: in vivo, Rhynchophorus ferrugineus
measurement-parameters: larvae, topical application
Give measured LD50 for each item. Keep answers brief.
One number for each entry, in µg/larva.

Below, 6 compounds whose answers are already recorded.
C=CC(C)(O)CCC=C(C)C (centres unmarked) [linalool] :: 13.7
C=C1/C=C/[C@H](C(C)C)CC/C(C)=C/CC1 [germacrene D] :: 21.3
C=C(C)C1CCC(C)(O)CC1 (stereo not drawn) [β-terpineol] :: 42.6
C=C(C)C1CCC(C)C2=C(C1)C(C)CC2 (stereo not drawn) [α-guaiene] :: 19.2
C=CCc1ccc(O)c(OC)c1 [eugenol] :: 14.2
CC12CCC(CC1)C(C)(C)O2 [1,8-cineole] :: 13.9

Would you mind giving LD50 for every compound in the list below?
1. C=C1CC/C=C(\C)CC[C@@H]2[C@@H]1CC2(C)C [β-caryophyllene]
2. CC(C)=CCC/C(C)=C\CO [nerol]
3. C=C1CCC2CC1C2(C)CCC=C(C)C (stereo not drawn) [β-bergamotene]

Out:
[20.1, 15.6, 17.2]

Provide the reported LD50 of each entry below, same order.
1. C=CC(=C)CCC=C(C)CCC=C(C)C [β-farnesene]
2. C=C/C(C)=C/CC=C(C)C [(E)-β-ocimene]

Out:
1. 18.4
2. 31.2

====

system-name: trypsin proteinase of R. ferrugineus midgut
method: Serine proteinase specific activity, trypsin (in vitro)
measurement-parameters: 4th instar midgut homogenate
Consider the following molecules; for each one, report its IC50 trypsin proteinase (in vitro).
Numbers only, in µg/mL.

CC(C)=CCC/C(C)=C\CO :: 68.1
CC1=CCC(C(C)C)=CC1 :: 229.7
C=CCc1ccc(O)c(OC)c1 :: 247.2
C=CC(=C)CCC=C(C)CCC=C(C)C :: 60.2
C=CCc1ccc(OC)cc1 :: 257.5
C=C1/C=C/[C@H](C(C)C)CC/C(C)=C/CC1 :: 144.2
C=C(C)C1CCC(C)(O)CC1 (stereo not shown) :: 168.4
C=C(C)C1CCC(C)C2=C(C1)C(C)CC2 (stereo not shown) :: 66.8

Parameter requested: IC50 trypsin proteinase (in vitro). Apply to each item below.
1. CC12CCC(CC1)C(C)(C)O2
2. C=C1CC/C=C(\C)CC[C@@H]2[C@@H]1CC2(C)C
3. C=C1CCC2CC1C2(C)CCC=C(C)C (stereo not shown)
4. C=C/C(C)=C/CC=C(C)C [(E)-β-ocimene]
5. C=CC(C)(O)CCC=C(C)C (stereo not shown)

Out:
1. 271.2
2. 70.4
3. 58.5
4. 157.2
5. 63.4

====

system-name: total proteases of R. ferrugineus midgut
method: Total proteolytic enzyme activity of 4th instar midgut homogenate, azocasein (in vitro)
property-label: IC50 total proteases (in vitro) (µg/mL)
Give bare numbers, in µg/mL.

Answered cases to consult:
C=CCc1ccc(OC)cc1 :: 254.7
CC12CCC(CC1)C(C)(C)O2 :: 91.5

# batch: return IC50 total proteases (in vitro) for each of the 8 compounds below
1. C=CC(C)(O)CCC=C(C)C (stereo not shown)
2. C=C1CCC2CC1C2(C)CCC=C(C)C (stereo not shown)
3. C=C(C)C1CCC(C)(O)CC1 (stereo not shown)
4. C=C/C(C)=C/CC=C(C)C [(E)-β-ocimene]
5. C=C(C)C1CCC(C)C2=C(C1)C(C)CC2 (stereo not shown)
6. C=C1CC/C=C(\C)CC[C@@H]2[C@@H]1CC2(C)C
7. C=C1/C=C/[C@H](C(C)C)CC/C(C)=C/CC1
8. C=CCc1ccc(O)c(OC)c1

Out:
1. 90.7
2. 78.9
3. 281.7
4. 207.4
5. 107.4
6. 176.3
7. 182.1
8. 97.6
